method_description: chemical genetic growth profiling, strain panel (AID 1159580);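 further: tested at 20 µM; growth read once vehicle control cultures reached saturation at 30 °C; 1 = growth at the plate median or of vehicle wells; lower values mean less growth of the strain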
assay_context: S. cerevisiae deletion strains, growth OD, locus YNR049C, strain mso1, stronger effect = lower value
About 2,000 (36%) of roughly 5,500 compounds were called active. About 18% were inconclusive and are not listed. The list shows a part of the results.
Field: normalized growth. Provide a value for each of the molecules that follow.
One number for each entry.

Solved cases below.
[
  {
    "molecule": "O=C(O[C@@H]1Cc2c(O)cc(O)cc2O[C@@H]1c1ccc(O)c(O)c1)c1cc(O)c(O)c(O)c1",
    "normalized growth": 1.04
  },
  {
    "molecule": "Nc1nc(=S)c2[nH]cnc2[nH]1",
    "normalized growth": 0.979
  },
  {
    "molecule": "NCCc1cnc[nH]1",
    "normalized growth": 1.04
  },
  {
    "molecule": "COc1ccc(OC)c(C(O)CNC(=O)CN)c1 (stereo unspecified)",
    "normalized growth": 1
  },
  {
    "molecule": "COC(=O)c1cc(=O)c(O)c2c(O)c(O)ccc2c1",
    "normalized growth": 0.998
  }
]

I'm hoping you can list normalized growth for every molecule here, please.
1. CC1(C)S[C@@H]2[C@H](NC(=O)[C@H](N)c3ccccc3)C(=O)N2[C@H]1C(=O)O
2. CCN(CC)Cc1ccc(Nc2ccnc3cc(Cl)ccc23)cc1O
3. C[C@]12CCC(=O)C=C1C=CC1C2CC[C@@]2(C)C1CC[C@@]21CCC(=O)O1 (stereo partly specified)
4. C[C@]12CCC(=O)C=C1C=CC1C2CC[C@@]2(C)C1CC[C@@]2(O)CCC(=O)O (stereo partly specified)
5. CC(=O)S[C@@H]1CC2=CC(=O)CC[C@]2(C)[C@H]2CC[C@@]3(C)[C@@H](CC[C@@]34CCC(=O)O4)C12 (stereo partly specified)
6. O=C(O)c1cc2cc(F)ccc2[nH]1

-- reply
1: 0.946; 2: 1.01; 3: 0.947; 4: 1.02; 5: 1.01; 6: 0.97
